runDescription: In vitro plasma stability
conditionSet: human, plasma
Non-standard residues stand in square brackets, D forms with d. Residues, ends and D or L forms follow the SMILES beside them. 2Nal = N[C@@H](Cc1ccc2ccccc2c1)C(=O)O
readoutLabel: half-life

CC[C@H](C)[C@H](NC(=O)[C@H](C)NC(=O)[C@H](Cc1c[nH]c2ccccc12)NC(=O)[C@@H]1CCCN1C(C)=O)C(=O)N[C@H](C(=O)N[C@@H](Cc1c[nH]c2ccccc12)C(=O)NCC(=O)N1CCC[C@H]1C(=O)N[C@H](C(=O)N[C@H](C(=O)N[C@@H](CO)C(=O)N[C@@H](CCCNC(=N)N)C(=O)N[C@@H](CCC(=O)O)C(=O)N[C@@H](CC(=O)O)C(N)=O)C(C)C)[C@@H](C)O)C(C)C [PIANPWT, Ac-PWAIVWGPTVSRED-NH2] (Ac-PWAIVWGPTVSRED-NH2) ... 16 h
CC[C@H](C)[C@H](NC(=O)[C@H](Cc1ccc2ccccc2c1)NC(=O)[C@H](CC(=O)O)NC(=O)[C@H](CC(=O)O)NC(=O)[C@H](CC(=O)O)NC(=O)[C@H](CCC(=O)O)NC(C)=O)C(=O)N[C@@H](CC(=O)O)C(=O)N[C@@H](Cc1c[nH]c2ccccc12)C(=O)NCC(=O)N1CCC[C@H]1C(=O)N[C@H](C(=O)N[C@@H](CO)C(=O)N[C@@H](CC(=O)O)C(=O)N[C@@H](CC(=O)O)C(=O)N[C@@H](CC(=O)O)C(N)=O)[C@@H](C)O [Peptide 21] (Ac-EDDD[2Nal]IDWGPTSDDD-NH2) ... > 48 h

Please examine the following record next.
Exam item: Hello, please tell me recorded half-life for this one: CC[C@H](C)[C@H](NC(=O)[C@H](Cc1c[nH]c2ccccc12)NC(=O)[C@H](CC(=O)O)NC(=O)[C@H](CC(=O)O)NC(=O)[C@H](CC(=O)O)NC(=O)[C@H](CCC(=O)O)NC(C)=O)C(=O)N[C@@H](CC(=O)O)C(=O)N[C@@H](Cc1c[nH]c2ccccc12)C(=O)NCC(=O)N1CCC[C@H]1C(=O)N[C@H](C(=O)N[C@@H](CO)C(=O)N[C@@H](CC(=O)O)C(=O)N[C@@H](CC(=O)O)C(=O)N[C@@H](CC(=O)O)C(N)=O)[C@@H](C)O [Peptide 17] (Ac-EDDDWIDWGPTSDDD-NH2)
Marked response: > 48 h
